Listed molecules paired with reported IC50
molecular target: HLA-DRB1*04:01 (Homo sapiens, UniProt P01903+P01911, A100K/A169T/F76Y/I96L/K127E/L162R/M171V/N62H/P40V/Q125Y/R42H/S133A/S149N/S66Y/V115G/V209L/W38E); construct: EBV transformed homozygous cell lines were used as sources of MHC molecules; endogenous in cells; host or cells: EBV transformed homozygous cell lines; test: HLA class II peptide binding, inhibition of radiolabeled peptide binding to purified MHC; settings: citrullinated 15-mer (X); purified MHC, inhibition of radiolabeled peptide binding; dash = IC50 >40,000 nM; read-out: DRB1*04:01 binding capacity, Cit peptide (IC50 nM)
Square brackets hold non-standard residues; d marks the D form. Peptide text beside a SMILES is read from it. Cit = NC(=O)NCCC[C@H](N)C(=O)O
Number in nM, nothing else.

CC(C)C[C@H](NC(=O)[C@H](C)NC(=O)[C@H](C)NC(=O)[C@@H](N)[C@@H](C)O)C(=O)N[C@@H](CCCNC(=N)N)C(=O)N[C@@H](CC(=O)O)C(=O)N[C@H](C(=O)N[C@@H](CCCNC(N)=O)C(=O)N[C@@H](CCC(N)=O)C(=O)N[C@@H](CCC(N)=O)C(=O)N[C@@H](Cc1ccc(O)cc1)C(=O)N[C@@H](CCC(=O)O)C(=O)N[C@@H](CO)C(=O)N[C@H](C(=O)N[C@@H](C)C(=O)O)C(C)C)C(C)C [TAALRDVXQQYESVA] (H-TAALRDV[Cit]QQYESVA-OH): 7160

Kindly consider the entry below.
CSCC[C@H](NC(=O)[C@H](CCC(=O)O)NC(=O)[C@@H](N)CCC(=O)O)C(=O)N[C@@H](CC(C)C)C(=O)N[C@@H](CCC(N)=O)C(=O)N[C@@H](CCCNC(N)=O)C(=O)N[C@@H](CCC(=O)O)C(=O)N[C@@H](CCC(=O)O)C(=O)N[C@@H](C)C(=O)N[C@@H](CCC(=O)O)C(=O)N[C@@H](CC(N)=O)C(=O)N[C@H](C(=O)N[C@@H](CC(C)C)C(=O)N[C@@H](CCC(N)=O)C(=O)N[C@@H](CO)C(=O)O)[C@@H](C)O [EEMLQXEEAENTLQS] (H-EEMLQ[Cit]EEAENTLQS-OH) yielded IC50 of 14000

###

molecular target: HLA-DRB1*04:01 (Homo sapiens, UniProt P01903+P01911, A100K/A169T/F76Y/I96L/K127E/L162R/M171V/N62H/P40V/Q125Y/R42H/S133A/S149N/S66Y/V115G/V209L/W38E); construct: EBV transformed homozygous cell lines were used as sources of MHC molecules; endogenous in cells; host or cells: EBV transformed homozygous cell lines; assay: HLA class II peptide binding, inhibition of radiolabeled peptide binding to purified MHC; settings: citrullinated 15-mer peptide (X = citrulline); purified HLA-DRB1*04:01; read-out: DRB1*04:01 binding capacity, Cit peptide (IC50 nM)
Square brackets hold non-standard residues; d marks the D form. Peptide text beside a SMILES is read from it. Cit = NC(=O)NCCC[C@H](N)C(=O)O
Listed molecules paired with reported IC50

CSCC[C@H](NC(=O)[C@@H](NC(=O)CNC(=O)[C@@H](N)CC(C)C)C(C)C)C(=O)N[C@@H](CCC(N)=O)C(=O)NCC(=O)N1CCC[C@H]1C(=O)N[C@@H](CCSC)C(=O)NCC(=O)N1CCC[C@H]1C(=O)N[C@@H](CCSC)C(=O)NCC(=O)N1CCC[C@H]1C(=O)N[C@@H](CCCNC(N)=O)C(=O)NCC(=O)O [LGVMQGPMGPMGPXG] (H-LGVMQGPMGPMGP[Cit]G-OH): > 40000 nM
CC[C@H](C)[C@H](NC(=O)[C@@H](N)CCC(=O)O)C(=O)N[C@@H](C)C(=O)N[C@H](C(=O)N[C@@H](Cc1ccc(O)cc1)C(=O)N[C@@H](CCCNC(=N)N)C(=O)N[C@@H](CCCCN)C(=O)N[C@@H](CC(C)C)C(=O)N[C@@H](CC(C)C)C(=O)N[C@@H](CCC(=O)O)C(=O)NCC(=O)N[C@@H](CCC(=O)O)C(=O)N[C@@H](CCC(=O)O)C(=O)N[C@@H](CO)C(=O)N[C@@H](CCCNC(N)=O)C(=O)O)[C@@H](C)O [EIATYRKLLEGEESX] (H-EIATYRKLLEGEES[Cit]-OH): 4300 nM
CC[C@H](C)[C@H](NC(=O)CNC(=O)[C@H](CCCNC(N)=O)NC(=O)[C@H](CCC(N)=O)NC(=O)CNC(=O)[C@H](C)NC(=O)[C@H](CC(C)C)NC(=O)CNC(=O)[C@H](CCC(N)=O)NC(=O)[C@@H]1CCCN1C(=O)CNC(=O)[C@@H]1CCCN1)C(=O)N[C@H](C(=O)NCC(=O)N[C@@H](CC(C)C)C(=O)O)C(C)C: 7920 nM
CC[C@H](C)[C@H](NC(=O)[C@@H](N)CCSC)C(=O)N[C@@H](CCCNC(N)=O)C(=O)N[C@@H](CC(C)C)C(=O)NCC(=O)N[C@@H](C)C(=O)N1CCC[C@H]1C(=O)N[C@@H](CCC(N)=O)C(=O)N[C@H](C(=O)N[C@@H](CC(C)C)C(=O)N[C@H](C(=O)N[C@@H](CC(C)C)C(=O)N[C@@H](CC(C)C)C(=O)N[C@H](C(=O)N[C@@H](CC(C)C)C(=O)O)[C@@H](C)O)C(C)C)[C@@H](C)O [MIXLGAPQTLVLLTL] (H-MI[Cit]LGAPQTLVLLTL-OH): 641 nM

Kindly consider the entry below.
CSCC[C@H](NC(=O)[C@@H]1CCCN1C(=O)CNC(=O)[C@@H]1CCCN1C(=O)[C@H](CO)NC(=O)CNC(=O)[C@H](CC(N)=O)NC(=O)[C@@H](N)CCC(=O)O)C(=O)NCC(=O)N1CCC[C@H]1C(=O)N[C@@H](CCCNC(N)=O)C(=O)NCC(=O)N[C@@H](CC(C)C)C(=O)N1CCC[C@H]1C(=O)NCC(=O)O [ENGSPGPMGPXGLPG] (H-ENGSPGPMGP[Cit]GLPG-OH) yielded IC50 of > 40000 nM

###

Listed molecules paired with reported IC50
biological target: HLA-DRB1*04:01 (Homo sapiens, UniProt P01903+P01911, A100K/A169T/F76Y/I96L/K127E/L162R/M171V/N62H/P40V/Q125Y/R42H/S133A/S149N/S66Y/V115G/V209L/W38E); construct: EBV transformed homozygous cell lines were used as sources of MHC molecules; endogenous in cells; host or cells: EBV transformed homozygous cell lines; experiment: HLA class II peptide binding, inhibition of radiolabeled peptide binding to purified MHC; settings: citrullinated 15-mer (X); purified MHC, inhibition of radiolabeled peptide binding; dash = IC50 >40,000 nM; read-out: DRB1*04:01 binding capacity, Cit peptide (IC50 nM)
Square brackets hold non-standard residues; d marks the D form. Peptide text beside a SMILES is read from it. Cit = NC(=O)NCCC[C@H](N)C(=O)O
Number in nM, nothing else.

CC(C)C[C@H](NC(=O)[C@H](CCCNC(N)=O)NC(=O)[C@@H](NC(=O)[C@H](C)NC(=O)[C@H](CO)NC(=O)[C@H](CO)NC(=O)[C@H](CCCNC(=N)N)NC(=O)[C@@H](NC(=O)[C@H](C)NC(=O)[C@H](Cc1ccc(O)cc1)NC(=O)[C@@H](NC(=O)CNC(=O)CNC(=O)[C@@H]1CCCN1C(=O)[C@@H](N)CO)C(C)C)[C@@H](C)O)C(C)C)C(=O)O [SPGGVYATRSSAVXL] (H-SPGGVYATRSSAV[Cit]L-OH): 497

Kindly consider the entry below.
CC(C)C[C@H](NC(=O)[C@H](CO)NC(=O)[C@H](Cc1ccccc1)NC(=O)[C@H](CC(=O)O)NC(=O)[C@@H](NC(=O)[C@H](CO)NC(=O)[C@H](CC(=O)O)NC(=O)[C@H](CCC(N)=O)NC(=O)[C@H](CC(C)C)NC(=O)[C@H](CC(C)C)NC(=O)[C@H](CCCNC(N)=O)NC(=O)[C@@H](NC(=O)CN)C(C)C)C(C)C)C(=O)N[C@@H](C)C(=O)N[C@@H](CC(=O)O)C(=O)O yielded IC50 of 918

###

molecular target: DRB1*11:01 (Homo sapiens, UniProt P01903+P01911, A100R/A169T/A87E/I96F/K41T/L162R/M171V/P40S/Q125H/Q178H/Q39Y/Q99D/R42S/S66Y/T262R/V115G/W38E); test: HLA class II peptide binding, inhibition of radiolabeled peptide binding to purified MHC; conditions: SE-, competition with radiolabeled peptide, two-day incubation, three or more independent experiments
Ends that are not written are not given here.
Listed sequences paired with reported pIC50
Scale note: pIC50 = -log10(concentration in M).

Here is how some sequences turned out for pIC50.
NQDFTNRINKLKNS [Fibrinogen 78–91 WT]: 4.86
VVLLVATEGRVRVNSAYQDK [Aggrecan 84–103 WT]: 6.28
SAVRLRSSVPGVR [Vimentin 66–78 WT]: 4.93

Kindly consider the entry below.
LQYMRADQAAGGLR [Collagen II 1236–1249 WT] yielded pIC50 of 5.01
